Test system: Wild type
Experimental Protocol: S. aureus survival, RN4220 and DeltatarO strains – OD600, teichoic acid synthesis inhibitors, primary screen (AID 463173)
Measurement Conditions: S. aureus RN4220 wild type/DeltatarO growth, OD600, 18 h, screened at 18.75 µg/mL (by protocol)
In all, about 52,000 compounds went through this assay and about 1,700 (3.3%) were called active. Cut-off read from the data, not from the text of the source: active = survival mostly below about 52% (no sharp cut-off); inactive = mostly above about 56%. Only a selection was taken, and actives are over-represented in it overall.
Please reply with one of these outcomes: active, inactive

COc1cc(OC)c(OC)cc1CN1CCc2nc(N3CCN(C)CC3)ncc2C1
inactive
CCN(CC)CCNC(=O)c1ccc2c(c1)NC(=O)C(CS(=O)(=O)Cc1cccc(Br)c1)N2 (centres undefined)
inactive
COc1cc(OC)c(OC)cc1CN1CCc2nc(N3CCN(c4ccccc4F)CC3)ncc2C1
inactive

Input line: Called result for COc1ccc2oc(=O)c(-c3csc(-c4ccc(Br)cc4)n3)cc2c1
Output line: inactive

Input line: Same for CC(=O)Nc1ccc(NC(=O)CCS(=O)(=O)c2ccc3c(c2)CC(=O)N3C)cc1
Output line: inactive

Input line: Record: CCOc1ccccc1CN1CCc2nc(N3CCN(c4ccccc4F)CC3)ncc2C1
Output line: active

Input line: Quick one: COc1ccc(-c2cnc(C)o2)cc1S(=O)(=O)Nc1ccc(C)c(F)c1
Output line: inactive

* * *

System: Wild type
Experimental Protocol: S. aureus survival, RN4220 and DeltatarO strains – OD600, teichoic acid synthesis inhibitors, primary screen (AID 463173)
Measurement Conditions: S. aureus RN4220 wild type/DeltatarO growth, OD600, 18 h, stronger effect = lower value, screened at 18.75 µg/mL (by protocol)
Screen size: about 52,000 compounds; about 1,700 (3.3%) were called active. Shown is part of a subset that was picked to be rich in actives.
Lab note - cut at 80% for survival: Yes if strictly below, No if not.

CCOc1c(CC2C(=O)Nc3ccc(Br)cc32)cccc1OC (stereo unspecified)
No
CCN1CCOC(=O)C1CC(=O)Nc1ccc(C(C)=O)cc1 (stereo unspecified)
Yes
CCCOc1ccc(NC(=O)CC2C(=O)N(c3ccc(C)cc3)C(=O)N2C(C)C)cc1 (stereo unspecified)
No

Input line: Consider Cc1ccc(N2CC(NC(=O)C3CCCC3)CC2=O)cc1 (stereo unspecified) . Does its survival lie strictly below 80%?
Output line: Yes

* * *

Test system: Wild type
Experimental Protocol: S. aureus survival, RN4220 and DeltatarO strains – OD600, teichoic acid synthesis inhibitors, primary screen (AID 463173)
Measurement Conditions: S. aureus RN4220 wild type/DeltatarO growth, OD600, 18 h, stronger effect = lower value, screened at 18.75 µg/mL (by protocol)
The whole screen tested about 52,000 compounds, of which about 1,700 (3.3%) were called active. The sample holds actives, similar compounds and a random draw of the others, so the mix is not that of the screen.
Mark each entry MET if its survival sits below 80%, and NOT MET for all others.

The examples below pair each entry with its known result.
Cc1cc(C)c(OCC(=O)Nc2cccc(-c3nc4ncccc4o3)c2)c(Br)c1
MET
CCOC(=O)c1ccccc1NS(=O)(=O)c1c(-c2ccc(C)cc2)csc1C(=O)OC
NOT MET
COc1ccc(CNC(=O)C(C(C)C)N2Cc3ccccc3C2=O)cc1 (stereo not given)
MET
CCCCN(CC)CCCNC(=O)c1cc2c(=O)oc3ccc(C)cc3c2s1
NOT MET

# evaluate next
Input line: I wonder whether COc1ccc(CNC(=O)C(CC(C)C)N2Cc3ccccc3C2=O)cc1 (stereo not given) has survival below 80%. Can you tell?
Output line: NOT MET
